# target-of-assay: His6-E6AP ligase (full-length, baculovirus-expressed) (human) (UniProt Q05086)
# test-method-notes: inhibition of His6-E6AP-catalyzed 125I-polyubiquitin chain formation, semi-reciprocal plot; non-competitive versus UbcH7
No end group written: not given here.
measured-parameter: Ki

Query string: Need Ki, item Ac-NRIRMYSERRITVLYSL [N-acetyl-… peptide]
Result string: 22 µM
